- target under test: acetylcholine receptor
- test details: SPR, AchR immobilised on chip, peptide at 10 uM
Collected Binding affinity (RU) values appear next to each entry.
Show the value, then the unit it is measured in.

// known answers, use as guide
## Task Quick one: Binding affinity (RU) of KGYQR [5mer-272] ?
## Result 83 RU

## Task Item under review: RGRCR [5mer-295] . Reported Binding affinity (RU)?
## Result 52 RU

## Task What does the data say about its Binding affinity (RU)? Entry: KWRCK [5mer-561]
## Result 72 RU

New cases:
## Task What value of Binding affinity (RU) has been reported for the following binder? KGFTR [5mer-574]
## Result 59 RU

Data origin: patent US20250011363A1
